# Tested on: SN12C renal
# method.description: NCI tumour cell line growth inhibition, 48 h; in the data active = GI50 below about 0.43 µM; inactive = the rest
Outcome (select one): active, inactive

// query What was the test verdict on C=C1C[C@@H]2CC[C@@]34C[C@H]5O[C@H]6[C@@H](O3)[C@H]3O[C@H](CC[C@@H]3O[C@H]6[C@@H]5O4)CC(=O)C[C@@H]3[C@@H](OC)[C@@H](C[C@H](O)CN)O[C@H]3C[C@H]3O[C@@H](CC[C@@H]1O2)C[C@@H](C)C3=C ?
// result active

// query Field entry: COc1ccc(OC)c(Cn2cc3c(c2-c2ccccc2)CCc2cnoc2-3)c1
// result inactive

// query Field entry: CCCCn1c(-c2ccc(C(=O)O/N=C(\N)c3ccc4c(c3)OCO4)cc2)nc(-c2ccccc2)c1-c1ccccc1
// result inactive
